# Tested on: SCID mice bearing twin HEK293-CCK2i4svR and wtHEK293 tumors
# protocol notes: Biodistribution in SCID mice bearing twin HEK293-CCK2i4svR and wtHEK293 xenografts
# Type: in vivo
# settings: 24 h pi
Rule for this label: true (1) means Biodistribution, Pancreas is less than 0.2 %IA/g; false (0) means Biodistribution, Pancreas is at least 0.2 %IA/g.

## Input # strict comparison: is reported Biodistribution, Pancreas < 0.2 %IA/g? input = CC(C)(C)C(=O)CN1C(=O)[C@H](NC(=O)Nc2cccc(C(=O)NCCOCCOCCOCCNC(=O)[C@H](CCC(=O)O)NC(=O)CN3CCN(CC(=O)[O-])CCN(CC(=O)[O-])CCN(CC(=O)[O-])CC3)c2)CN(C2CCCCC2)c2ccccc21.[67Ga+3] (stereo in doubt) [[^67Ga]Ga-GAS1]
## Output false (0)

## Input Hi there! Is Biodistribution, Pancreas for CC(C)(C)C(=O)CN1C(=O)[C@H](NC(=O)Nc2cccc(C(=O)NCCOCCOCCOCCNC(=O)[C@H](CCC(=O)O)NC(=O)CN3CCN(CC(=O)[O-])CCN(CC(=O)[O-])CCN(CC(=O)[O-])CC3)c2)CN(C2CCCCC2)c2ccccc21.[111In+3] (stereo in doubt) [[^111In]In-GAS1] below 0.2 %IA/g, do you know?
## Output true (1)

## Input Dear colleague, could you confirm whether Biodistribution, Pancreas of CC(C)(C)C(=O)CN1C(=O)[C@H](NC(=O)Nc2cccc(C(=O)NCCOCCOCCOCCNC(=O)[C@H](CCC(=O)O)NC(=O)CCC(C(=O)O)N3CCN(CC(=O)[O-])CCN(CC(=O)[O-])CCN(CC(=O)[O-])CC3)c2)CN(C2CCCCC2)c2ccccc21.[67Ga+3] (stereo in doubt) [[^67Ga]Ga-GAS3] falls below 0.2 %IA/g? Thanks.
## Output true (1)

## Input Here's an entry: CC(C)(C)C(=O)CN1C(=O)[C@H](NC(=O)Nc2cccc(C(=O)NCCOCCOCCOCCNC(=O)[C@@H](CCC(=O)O)NC(=O)CCC(C(=O)[O-])N3CCN(CC(=O)[O-])CCN(CC(=O)[O-])CC3)c2)CN(C2CCCCC2)c2ccccc21.[111In+3] (some centres unmarked) [[^111In]In-GAS2] . Is its Biodistribution, Pancreas below 0.2 %IA/g?
## Output false (0)

***
## Input Field: below-cutoff. Rule: recorded Biodistribution, Pancreas strictly less than 0.2 %IA/g. Subject: CC(C)(C)C(=O)CN1C(=O)[C@H](NC(=O)Nc2cccc(C(=O)NCCOCCOCCOCCNC(=O)[C@H](CCC(=O)O)NC(=O)CN3CCN(CC(=O)[O-])CCN(CC(=O)[O-])CCN(CC(=O)[O-])CC3)c2)CN(C2CCCCC2)c2ccccc21.[177Lu+3] (stereo in doubt) [[^177Lu]Lu-GAS1]
## Output true (1)

## Input Please let me know if CC(C)(C)C(=O)CN1C(=O)[C@H](NC(=O)Nc2cccc(C(=O)NCCOCCOCCOCCNC(=O)[C@H](CCC(=O)O)NC(=O)CCC(C(=O)O)N3CCN(CC(=O)[O-])CCN(CC(=O)[O-])CCN(CC(=O)[O-])CC3)c2)CN(C2CCCCC2)c2ccccc21.[177Lu+3] (stereo in doubt) [[^177Lu]Lu-GAS3] shows Biodistribution, Pancreas below 0.2 %IA/g.
## Output true (1)

## Input Hello, is Biodistribution, Pancreas of the following compound strictly smaller than 0.2 %IA/g? CC(C)(C)C(=O)CN1C(=O)[C@H](NC(=O)Nc2cccc(C(=O)NCCOCCOCCOCCNC(=O)[C@@H](CCC(=O)O)NC(=O)CCC(C(=O)O)N3CCN(CC(=O)[O-])CCN(CC(=O)[O-])CCN(CC(=O)[O-])CC3)c2)CN(C2CCCCC2)c2ccccc21.[111In+3] (some centres unmarked) [[^111In]In-GAS3]
## Output true (1)

## Input Does CC(C)(C)C(=O)CN1C(=O)[C@H](NC(=O)Nc2cccc(C(=O)NCCOCCOCCOCCNC(=O)[C@H](CCC(=O)O)NC(=O)CCC(C(=O)[O-])N3CCN(CC(=O)[O-])CCN(CC(=O)[O-])CC3)c2)CN(C2CCCCC2)c2ccccc21.[67Ga+3] (stereo in doubt) [[^67Ga]Ga-GAS2] have Biodistribution, Pancreas strictly under 0.2 %IA/g?
## Output true (1)
